System: UACC-62 melanoma
assayExplanation: NCI tumour cell line growth inhibition, 48 h
Label No if TGI falls below 20 µM; label Yes in every other case.

compound	class
O=CN1CCN(C(=O)c2ccco2)C1=S	Yes
COC(=O)C1=CCON(c2ccccc2)C1c1ccccc1 (stereo not drawn)	Yes
O=P1(C(O)/C=C/c2ccccc2)N(Cc2ccccc2)[C@@H]2CCCC[C@H]2N1Cc1ccccc1 (stereo partly drawn)	Yes
COc1cccc(N2C(=O)CS(=O)(=O)C2c2cccc(Oc3ccccc3)c2)c1 (stereo not drawn)	Yes
COc1ccc(-c2cc(-c3ccc(Cl)cc3)c(C#N)c(=O)n2CCCCC(=O)Nc2ccccc2N)cc1	No
O=C(/C=C\Nc1ccccc1O)C(F)(F)F	Yes
O=C(O)c1cc[c]([Hg][S]c2ncnc3nc[nH]c23)cc1	No
COc1ccc(C2C(Cl)C(=O)N2n2cnc3ccccc3c2=O)cc1OC (stereo not drawn)	Yes
